These entries and their values trace back to PubChem BioAssay (NCATS).

- PROTOCOL DESCRIPTION: qHTS assay for environmental chemicals that activate the Aryl hydrocarbon Receptor (AhR) signaling pathway (AID 651777); further: % of control where 0% means no effect; nearly all actives have a fitted effect of over 15% in size
- RUN PARAMETERS: 1A2-DRE human hepatoma cells, luciferase, 24 h; active compounds read high
Results filed as inconclusive are left out.
Exercise: for every item that follows, state its recorded activation.
One number for each entry, in %.

// below: answered molecules
Input line: What value of activation has been recorded for this entry: "O=C1c2ccccc2C(=O)N1SC(Cl)(Cl)Cl"
Output line: -3.47

Input line: What value of activation has been recorded for this entry: "CCOP(=S)(OCC)SCC(=O)NC(C)C"
Output line: 0.496

Input line: What value of activation has been recorded for this entry: "CCC[CH2][Sn]([CH2]CCC)([CH2]CCC)[O]C(=O)c1ccccc1"
Output line: -10.5

Input line: What value of activation has been recorded for this entry: CNP(=O)(OC)Oc1ccc(C(C)(C)C)cc1Cl (centres undefined)
Output line: 5.81

Input line: What value of activation has been recorded for this entry: "CCC[CH2][Sn]([CH2]CCC)([CH2]CCC)[CH2]CCC"
Output line: 0.926

Input line: What value of activation has been recorded for this entry: "C[C@H]1[C@H](c2ccc(Cl)cc2)SC(=O)N1C(=O)NC1CCCCC1"
Output line: 6.81

Input line: What value of activation has been recorded for this entry: "Clc1ccc(C(Cl)(Cl)Cl)cc1"
Output line: 0.701

Input line: What value of activation has been recorded for this entry: CC(Oc1cccc(Cl)c1)C(=O)O (centres undefined)
Output line: -0.19

Go through the items and report each one's activation.
1. NS(=O)(=O)C(F)(F)C(F)(F)C(F)(F)C(F)(F)C(F)(F)C(F)(F)C(F)(F)C(F)(F)F
2. CN(C)P(=O)(N(C)C)N(C)C
3. CCOP(=O)(OCC)Oc1cc(C)nc(C(C)C)n1
4. CCOP(=O)(OCC)Oc1nc(Cl)c(Cl)cc1Cl
5. CC(C)C(C(=O)OC(C#N)c1cccc(Oc2ccccc2)c1)c1ccc(Cl)cc1 (centres undefined)

Output line:
1. 4
2. 0.845
3. -0.423
4. 3.16
5. 2.62

Input line: What value of activation has been recorded for this entry: Clc1ccc(C2(Cn3cncn3)CC(Br)CO2)c(Cl)c1 (centres undefined)
Output line: 0.536
